subject of test: C-C chemokine receptor type 5 (Homo sapiens)
Sequence (P51681 whole entry): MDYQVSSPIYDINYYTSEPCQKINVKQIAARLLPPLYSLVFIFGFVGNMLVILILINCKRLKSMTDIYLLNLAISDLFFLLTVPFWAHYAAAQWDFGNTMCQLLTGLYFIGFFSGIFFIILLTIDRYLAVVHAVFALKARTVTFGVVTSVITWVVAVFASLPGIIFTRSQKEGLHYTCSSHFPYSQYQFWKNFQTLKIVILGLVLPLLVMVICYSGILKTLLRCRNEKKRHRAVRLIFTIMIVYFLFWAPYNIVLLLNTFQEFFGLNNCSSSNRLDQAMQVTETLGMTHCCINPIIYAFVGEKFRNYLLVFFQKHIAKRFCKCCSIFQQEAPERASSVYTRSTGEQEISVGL
experimental details: Ability to displace [125I]-labeled MIP-1alpha from the C-C chemokine receptor type 5 expressed on CHO cell membranes
property label: IC50 (nM)

Observed IC50, C-C chemokine receptor type 5 (Homo sapiens), `CCN(C(=O)OCc1ccccc1)C1CCN(C[C@@H]2[C@@H](c3ccccc3)CN3OC4(CCCCC4)C[C@@H]23)CC1` : 86

For `C=CCN(C(=O)OCc1ccc([N+](=O)[O-])cc1)C1CCN(C[C@@H]2[C@@H](c3ccccc3)CN3O[C@H](c4ccccc4)C[C@@H]23)CC1` on C-C chemokine receptor type 5 (Homo sapiens), measured IC50 was 6

Tested system C-C chemokine receptor type 5 (Homo sapiens); IC50 recorded for `C=CCN(C(=O)OCc1ccc([N+](=O)[O-])cc1)C1CCN(C[C@@H]2[C@@H](c3ccccc3)CN3OC4(CCCCC4)C[C@@H]23)CC1` was 14

Entry `c1ccc(C2CCN(C[C@@H]3[C@@H](c4ccccc4)CN4O[C@H](c5ccccc5)C[C@@H]34)CC2)cc1` , C-C chemokine receptor type 5 (Homo sapiens) data, IC50 value: 30

Fill in: C-C chemokine receptor type 5 (Homo sapiens) IC50 for `c1ccc(CCCC2CCN(C[C@@H]3[C@@H](c4ccccc4)CN4O[C@H](c5ccccc5)C[C@@H]34)CC2)cc1` = 11

[P] CCN(C(=O)OCc1ccccc1)C1CCN(C[C@H]2CN3OC4(CCCCC4)C[C@H]3[C@@H]2c2ccccc2)CC1
[Q] c1ccc(C2CCN(C[C@H]3CN4OC5(CCCCC5)C[C@H]4[C@@H]3c3ccccc3)CC2)cc1
In: Could you point out whether the larger IC50 belongs to P or to Q ? To answer, give the label that identifies your chosen option.
Out: Q
(Q: 43 nM, P: 5 nM)

[1] c1ccc(C2CCN(C[C@H]3CN4O[C@H](c5ccccc5)C[C@H]4[C@@H]3c3ccccc3)CC2)cc1
[2] C=CCN(C(=O)OCc1ccc([N+](=O)[O-])cc1)C1CCN(C[C@H]2CN3OC4(CCCCC4)C[C@H]3[C@@H]2c2ccccc2)CC1
[3] CCN(C(=O)OCc1ccccc1)C1CCN(C[C@@H]2[C@@H](c3ccccc3)CN3O[C@H](c4ccccc4)C[C@@H]23)CC1
In: Hello, I need these entries ordered by IC50, highest reading first. Thanks! # format: label list in the order the request specifies
Out: 3, 1, 2

Origin of the recorded values: ChEMBL document CHEMBL1135079
